TESTED ON: human pancreatic lipase (hPL) (Homo sapiens)
Construct: gene PNLIP
Sequence (P16233 17-465): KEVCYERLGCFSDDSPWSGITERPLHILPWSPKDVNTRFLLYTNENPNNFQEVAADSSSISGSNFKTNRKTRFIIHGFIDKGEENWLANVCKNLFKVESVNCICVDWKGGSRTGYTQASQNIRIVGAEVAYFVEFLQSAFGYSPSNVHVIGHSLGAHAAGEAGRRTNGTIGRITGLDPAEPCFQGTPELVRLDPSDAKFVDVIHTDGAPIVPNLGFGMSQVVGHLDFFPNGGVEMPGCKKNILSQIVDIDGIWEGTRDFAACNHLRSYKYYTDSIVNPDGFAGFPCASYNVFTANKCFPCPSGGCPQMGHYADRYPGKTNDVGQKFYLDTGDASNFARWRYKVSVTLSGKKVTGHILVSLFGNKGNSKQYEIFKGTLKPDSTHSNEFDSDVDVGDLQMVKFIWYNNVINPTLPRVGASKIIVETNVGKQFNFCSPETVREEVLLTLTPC
ASSAY CONDITIONS: 10 µM; inhibitor
Quick rule for you: % of control remaining under 90% gets 1 (yes), anything else gets 0 (no).

>  <COMPOUND>
CCCN(CCC)S(=O)(=O)c1ccc(C(=O)O)cc1

>  <LABEL CLASS>
0 (no)

$$$$
>  <COMPOUND>
CCC/C=C1\OC(=O)C2=C1CCC=C2 [Z-Ligustilide]

>  <LABEL CLASS>
1 (yes)

$$$$
>  <COMPOUND>
CN[C@H](CC(C)C)C(=O)N[C@H]1C(=O)N[C@@H](CC(N)=O)C(=O)N[C@H]2C(=O)N[C@H]3C(=O)N[C@H](C(=O)N[C@H](C(=O)O)c4cc(O)cc(O)c4-c4cc3ccc4O)[C@H](O)c3ccc(c(Cl)c3)Oc3cc2cc(c3O[C@@H]2O[C@H](CO)[C@@H](O)[C@H](O)[C@H]2O[C@H]2C[C@](C)(N)[C@H](O)[C@H](C)O2)Oc2ccc(cc2Cl)[C@H]1O

>  <LABEL CLASS>
0 (no)

$$$$
>  <COMPOUND>
CC1(C)OC(=O)C=C[C@]2(C)[C@H]3CC[C@@]4(C)[C@H](c5ccoc5)OC(=O)[C@H]5O[C@]54[C@]3(C)C(=O)C[C@@H]12

>  <LABEL CLASS>
1 (yes)

$$$$
>  <COMPOUND>
CC(C)(C)NCC(O)c1cc(O)cc(O)c1 (stereo not shown)

>  <LABEL CLASS>
0 (no)

$$$$

Then there is this compound:
Lab note: confirm whether the reported % of control remaining for this compound is below 90%, equality not counting. compound: Cc1cc(=O)c2c(O)c3c(O[C@@H]4O[C@H](CO)[C@@H](O)[C@H](O)[C@H]4O)cccc3cc2o1 [Cassiaside]
1 (yes)

* * *

TESTED ON: human pancreatic lipase (hPL) (Homo sapiens)
Construct: gene PNLIP
ASSAY CONDITIONS: 10 µM; inhibitor
Counter-ions that a name gives are not always drawn.
The entries below are paired with their reported % of control remaining.
Return type: number; implicit unit %.

>  <COMPOUND>
CN1CCN(C2=Nc3cc(Cl)ccc3Nc3ccccc32)CC1 [Clozapine]

>  <TEST READOUT>
% of control remaining

>  <OBSERVED>
97.86

$$$$
>  <COMPOUND>
COC1=C[C@@H]2[C@@H]3Cc4ccc(OC)c(O)c4[C@]2(CCN3C)CC1=O [Sinomenine]

>  <TEST READOUT>
% of control remaining

>  <OBSERVED>
101.42

$$$$
>  <COMPOUND>
CCOC(=O)C1=C(C)NC(C)=C(C(=O)OC)C1c1cccc(Cl)c1Cl (stereo not drawn) [Felodipine]

>  <TEST READOUT>
% of control remaining

>  <OBSERVED>
93.02

$$$$
>  <COMPOUND>
CC(=O)O[C@]1(C(C)=O)CC[C@H]2[C@@H]3C[C@H](C)C4=CC(=O)CC[C@]4(C)[C@H]3CC[C@@]21C [Medroxyprogesterone Acetate]

>  <TEST READOUT>
% of control remaining

>  <OBSERVED>
68.77

$$$$
>  <COMPOUND>
COc1ccc2cc([C@H](C)C(=O)O)ccc2c1 [Naproxen]

>  <TEST READOUT>
% of control remaining

>  <OBSERVED>
116.02

$$$$

Using known records, supply % of control remaining for Cc1c(O)c(C)c2c(c1O)C(=O)[C@H](Cc1ccc3c(c1)OCO3)CO2 [Methylophiopogonanone A]
80.44

Using known records, supply % of control remaining for O=C1c2c(O)cc(O)cc2O[C@H](c2ccc(O)cc2)[C@H]1O [Dihydrokaempferol]
109.31

Using known records, supply % of control remaining for COCCc1ccc(OCC(O)CNC(C)C)cc1 (stereo not drawn) [Metoprolol tartrate]
135.23

Using known records, supply % of control remaining for O=c1c(-c2ccc(O)cc2)coc2cc(O)cc(O)c12 [Genistein]
106.48

Using known records, supply % of control remaining for C[C@@H]1C(=O)O[C@H]2[C@H](O)[C@@]34O[C@@H]5OC(=O)[C@H](O)[C@@]56[C@H](C(C)(C)C)[C@H](O)C(OC3=O)[C@]64[C@@]12O (stereo partly drawn) [Ginkgolide C]
106.22

Using known records, supply % of control remaining for COC(=O)C1=CO[C@@H](O)[C@@H]2C(CO)=CC[C@H]12 [Genipin]
99.28

Using known records, supply % of control remaining for NS(=O)(=O)c1cc(C(=O)O)c(NCc2ccco2)cc1Cl [Furosemide]
100.00

Using known records, supply % of control remaining for O=c1c(O)c(-c2ccc(O)cc2)oc2c(O)c(O)cc(O)c12 [Herbacetin]
83.59

* * *

The entries below are paired with their reported % of control remaining.
TESTED ON: human pancreatic lipase (hPL) (Homo sapiens, UniProt P16233)
Construct: gene PNLIP
ASSAY CONDITIONS: 10 µM; inhibitor
Structures can show the parent of a compound that is named as a salt.
# output: numeric value plus its unit

Completed entries (count: 5):
>  <MOLECULE>
COc1ccc(-c2cc(=O)c3c(O)c(OC)c(O)c(OC)c3o2)cc1

>  <OBSERVED>
84.30%

$$$$
>  <MOLECULE>
CN(C)C(=O)Oc1cc(OC(=O)N(C)C)cc(C(O)CNC(C)(C)C)c1 (centres unmarked) [Bambuterol hydrochloride]

>  <OBSERVED>
93.23%

$$$$
>  <MOLECULE>
O=C(CCc1ccc(O)cc1)c1c(O)cc(O)cc1O

>  <OBSERVED>
81.23%

$$$$
>  <MOLECULE>
O=C(O)Cc1ccccc1Nc1c(Cl)cccc1Cl

>  <OBSERVED>
97.62%

$$$$
>  <MOLECULE>
COc1cc(O)c2c(c1C(=O)/C=C/c1ccc(O)cc1)OC(C)(C)C(O)C2 (centres unmarked)

>  <OBSERVED>
100.78%

$$$$

Using known records, supply % of control remaining for COc1cc2c3cc1Oc1c(OC)c(OC)cc4c1[C@@H](Cc1cccc(c1)Oc1ccc(c(O)c1)C[C@@H]3N(C)CC2)N(C)CC4 [Berbamine Hydrochloride]
69.86%

Using known records, supply % of control remaining for COc1cc([C@@H]2c3cc4c(cc3[C@@H](O[C@@H]3O[C@@H]5CO[C@@H](C)O[C@H]5[C@H](O)[C@H]3O)[C@H]3COC(=O)[C@H]23)OCO4)cc(OC)c1O [Etoposide]
65.05%

Using known records, supply % of control remaining for `C/C=C(/C)C(=O)O[C@H]1[C@@H](OC(=O)CC(C)C)c2c(ccc3ccc(=O)oc23)OC1(C)C`
87.81%

* * *

TESTED ON: human pancreatic lipase (hPL) (Homo sapiens, UniProt P16233)
Construct: gene PNLIP
ASSAY CONDITIONS: 10 µM; inhibitor
The entries below are paired with their reported % of control remaining.
Return type: number; implicit unit %.

>  <COMPOUND>
CCc1cc(C(N)=S)ccn1 [Ethionamide]

>  <TESTED ON>
human pancreatic lipase (hPL) (Homo sapiens, UniProt P16233)

>  <% of control remaining (%)>
91.71

$$$$
>  <COMPOUND>
CC(C)=CCOc1c2occc2cc2ccc(=O)oc12

>  <TESTED ON>
human pancreatic lipase (hPL) (Homo sapiens, UniProt P16233)

>  <% of control remaining (%)>
75.61

$$$$
>  <COMPOUND>
C[C@@H](Oc1cc(-c2cnn(C3CCNCC3)c2)cnc1N)c1c(Cl)ccc(F)c1Cl

>  <TESTED ON>
human pancreatic lipase (hPL) (Homo sapiens, UniProt P16233)

>  <% of control remaining (%)>
85.14

$$$$
>  <COMPOUND>
NC(=O)N1c2ccccc2C=Cc2ccccc21 [Carbamazepine]

>  <TESTED ON>
human pancreatic lipase (hPL) (Homo sapiens, UniProt P16233)

>  <% of control remaining (%)>
104.15

$$$$

Using known records, supply % of control remaining for `COc1ccc(-c2coc3cc(O)ccc3c2=O)cc1`
104.25
